Just for reference, patent US11180487B2 is where these values come from.

Item-by-item account of IC50
# target_entity: recombinant human NF-kappaB-inducing kinase (NIK/MAP3K14) (Homo sapiens, UniProt Q99558)
# Sequence (Q99558 whole entry): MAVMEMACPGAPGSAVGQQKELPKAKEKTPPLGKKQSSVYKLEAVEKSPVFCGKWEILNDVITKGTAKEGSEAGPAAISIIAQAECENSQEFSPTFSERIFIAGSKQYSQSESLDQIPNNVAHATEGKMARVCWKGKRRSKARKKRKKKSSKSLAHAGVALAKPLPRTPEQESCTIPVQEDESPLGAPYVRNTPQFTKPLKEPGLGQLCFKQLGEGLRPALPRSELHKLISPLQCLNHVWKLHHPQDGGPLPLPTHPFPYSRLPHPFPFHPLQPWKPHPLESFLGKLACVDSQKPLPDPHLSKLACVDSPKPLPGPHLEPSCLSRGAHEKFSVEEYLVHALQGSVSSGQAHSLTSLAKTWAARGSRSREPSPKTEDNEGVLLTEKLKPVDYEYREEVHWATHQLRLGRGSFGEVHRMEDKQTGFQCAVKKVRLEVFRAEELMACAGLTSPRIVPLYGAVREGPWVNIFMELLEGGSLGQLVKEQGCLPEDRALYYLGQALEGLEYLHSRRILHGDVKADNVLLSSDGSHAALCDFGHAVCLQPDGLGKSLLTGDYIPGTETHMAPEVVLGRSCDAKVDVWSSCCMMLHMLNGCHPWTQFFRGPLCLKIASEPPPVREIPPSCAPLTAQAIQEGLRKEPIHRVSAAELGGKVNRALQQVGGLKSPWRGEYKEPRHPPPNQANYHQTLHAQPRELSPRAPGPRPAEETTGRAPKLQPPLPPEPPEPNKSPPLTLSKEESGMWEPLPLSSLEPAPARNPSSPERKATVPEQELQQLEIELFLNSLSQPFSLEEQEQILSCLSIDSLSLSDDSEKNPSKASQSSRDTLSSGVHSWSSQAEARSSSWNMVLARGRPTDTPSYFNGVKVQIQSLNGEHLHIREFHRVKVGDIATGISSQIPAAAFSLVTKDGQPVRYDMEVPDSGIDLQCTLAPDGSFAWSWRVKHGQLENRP
# protocol_details: Inhibition of auto-phosphorylation of recombinant human NIK/MAP3K14 activity (AlphaScreen), Biological Assay A
# Type: biochemical
# recorded_conditions: averaged values over all measurements on all batches
Field format: number, assumed nM, no unit text.

Answered examples (5):
COc1cc(OCCN2CCN(C)CC2)c(Cl)cc1Nc1nccc(-c2cc(C#N)c3c(c2)C(C)(C)CN3)n1 [Compound 95]	9.3
CC(C)c1ccc(COc2cccc(Nc3nccc(-c4cc(C#N)c5c(c4)C(C)(CO)CN5)n3)c2)cc1 (stereo not shown) [Compound 42]	309
CNC(=O)c1cc(Nc2nccc(-c3cc(C#N)c4c(c3)[C@@](C)(CO)CN4)n2)c(F)cc1OC1CC1 [Compound 157]	4.9
COCCOc1cc(C2CCOCC2)ccc1Nc1nccc(-c2cc(C#N)c3c(c2)[C@@](C)(CO)CN3)n1 [Compound 61]	11
COCCOc1ccc(Cl)cc1Nc1nccc(-c2cc(C#N)c3c(c2)[C@](C)(CO)CN3)n1 [Compound 57]	50.1

Ask | For CNC(=O)c1cc(Nc2nccc(-c3cc(C#N)c4c(c3)[C@@](C)(CO)CN4)n2)c(F)cc1F [Compound 165] , write its IC50.
Reply | 3.6

Ask | # return recorded IC50 for entry Cc1cc(CCN2CC(F)C2)c(C#N)cc1Nc1nccc(-c2cc(C#N)c3c(c2)[C@@](C)(CO)CN3)n1 [Compound 174]
Reply | 3.5

###

Entries and their measured melting point follow.
Answer in °C, number only, no unit symbol.

CC1(CO)CNc2c(C#N)cc(-c3ccnc(Nc4ccc(C5CCOCC5)c(C(F)(F)F)c4)n3)cc21 (stereo not shown)	263
C[C@]1(CO)CNc2c(C#N)cc(-c3ccnc(Nc4cc(C#N)ccc4C(F)(F)F)n3)cc21	237
Cc1ccc(C#N)cc1Nc1nccc(-c2cc(C#N)c3c(c2)[C@@](C)(CNS(C)(=O)=O)CN3)n1	168
COCCOc1ccc(Cl)cc1Nc1nccc(-c2cc(C#N)c3c(c2)[C@](C)(CO)CN3)n1	188

Ask | Could you please provide reported melting point for `CCC(=O)NCCCc1cc(C)c(Nc2nccc(-c3cc(C#N)c4c(c3)[C@@](C)(CO)CN4)n2)cc1C#N` ? Thanks!
Reply | 193

Ask | Annotate the compound CC1(CO)CNc2c(C#N)cc(-c3ccnc(Nc4cc(Cl)ccc4C(F)(F)F)n3)cc21 (stereo not shown) with its measured melting point.
Reply | 172

Ask | Input `CNC(=O)c1cc(Nc2nccc(-c3cc(C#N)c4c(c3)[C@@](C)(CO)CN4)n2)c(F)cc1F` , output reported melting point.
Reply | 224

###

# target_entity: recombinant human NF-kappaB-inducing kinase (NIK/MAP3K14) (Homo sapiens)
# protocol_details: Inhibition of auto-phosphorylation of recombinant human NIK/MAP3K14 activity (AlphaScreen), Biological Assay A
# Assay type: biochemical
# recorded_conditions: averaged values over all measurements on all batches
value_kind: log10(IC50) (log10 of the value in nM)
For clarity, the numbers are log10 values of IC50 expressed in nM.

Solved cases below.
C[C@]1(CO)CNc2c(C#N)cc(-c3ccnc(Nc4cc(C#N)ccc4CNC4CC4)n3)cc21	1.30
COc1cc(C(=O)N2CC[C@@H]3CNC[C@@H]32)c(Cl)cc1Nc1nccc(-c2cc(C#N)c3c(c2)C(C)(C)CN3)n1 (relative stereo)	0.67
CC1(C)CNc2c(C#N)cc(-c3ccnc(Nc4cc(Cl)ccc4OC4CCOCC4)n3)cc21	2.02
COCCCc1ccc(Cl)cc1Nc1nccc(-c2cc(C#N)c3c(c2)[C@@](C)(CO)CN3)n1	1.04
Cc1ccc(C2CCN(C)CC2)cc1Nc1nccc(-c2cc(C#N)c3c(c2)[C@@](C)(CO)CN3)n1	1.86
COc1cc(C(=O)NC2CCOCC2)c(Cl)cc1Nc1nccc(-c2cc(C#N)c3c(c2)C(C)(C)CN3)n1	1.04
COc1cc(C(=O)NC2CCOCC2)ccc1Nc1nccc(-c2cc(C#N)c3c(c2)C(C)(CO)CN3)n1 (stereo not shown)	0.40
Cc1cc(S(C)(=O)=O)ccc1Nc1nccc(-c2cc(C#N)c3c(c2)[C@@](C)(CO)CN3)n1	0.04

Ask | Please give the documented log10(IC50) of C[C@]1(CO)CNc2c(C#N)cc(-c3ccnc(Nc4ccccc4C4CCCN4)n3)cc21 (single isomer, unassigned) [Compound 238]
Reply | 2.98

Ask | Check the records and state log10(IC50) for `Cc1ccc(-c2ncc[nH]2)cc1Nc1nccc(-c2cc(C#N)c3c(c2)[C@@](C)(CO)CN3)n1.Cl`
Reply | 1.14

Ask | Report measured log10(IC50); entry is `[2H]C1([2H])OC([2H])([2H])C([2H])([2H])N(C(=O)c2cccc(Nc3nccc(-c4cc(C#N)c5c(c4)[C@@](C)(CO)CN5)n3)c2C)C1([2H])[2H]`
Reply | 0.78

Ask | Return log10(IC50) (reported value) for this compound: `Cc1ccc(COC(C)C)cc1Nc1nccc(-c2cc(C#N)c3c(c2)[C@@](C)(CO)CN3)n1`
Reply | 1.00

Ask | Provide measured log10(IC50) value, entry: `Cc1cc(C2CCN(C)CC2)c(C#N)cc1Nc1nccc(-c2cc(C#N)c3c(c2)[C@@](C)(CO)CN3)n1`
Reply | 0.26

Ask | Note down log10(IC50) recorded for Cc1ccc(C#N)cc1Nc1nccc(-c2cc(C#N)c3c(c2)[C@@](C)(CO)CN3)n1 [Compound 133]
Reply | -0.15

Ask | In one line, give reported log10(IC50) of the entry Cc1ccc(Cl)cc1Nc1nccc(-c2cc(C#N)c3c(c2)C(C)(CO)CN3)n1 (stereo not shown) .
Reply | 0.96

Ask | Dear colleague, please send me the reported log10(IC50) for `Cc1ccc(C(C)(C)O)cc1Nc1nccc(-c2cc(C#N)c3c(c2)[C@@](C)(CO)CN3)n1` when you can.
Reply | 1.35

Ask | Recall and state the measured log10(IC50) for `Cc1ccc(OCCNC2CC2)c(Nc2nccc(-c3cc(C#N)c4c(c3)[C@@](C)(CO)CN4)n2)c1` .
Reply | 0.59

Ask | Look up and report measured log10(IC50) for this entry: `Cc1ccc(C(=O)NCCN2CCOCC2)cc1Nc1nccc(-c2cc(C#N)c3c(c2)[C@@](C)(CO)CN3)n1`
Reply | 0.74

Ask | Recall and state the measured log10(IC50) for COc1cc(N2CCC(N(C)C)CC2)c(Cl)cc1Nc1nccc(-c2cc(C#N)c3c(c2)C(C)(CO)CN3)n1 (stereo not shown) .
Reply | 0.40

Ask | Respond only with log10(IC50) recorded for `CC1(C)CNc2c(C#N)cc(-c3ccnc(Nc4cc(Cl)ccc4OCCO)n3)cc21`
Reply | 1.62
